test: Plasma pharmacokinetics; settings: human, in vivo, 3.2 mg, AUC0-24
Result Type: AUC(0-t) (ng·h/mL)
Note: unit ng·h/mL is implicit; provide only the numeric part.

Please give the measured AUC(0-t) for this molecule: `COc1cc2nccc(Oc3ccc(NC(=O)NC4CC4)c(Cl)c3)c2cc1C(N)=O` 407

* * *

assay: Plasma pharmacokinetics; settings: human, in vivo, 8 mg
Result Type: Vd/F (L)
Note: unit L is implicit; provide only the numeric part.

Please give the measured Vd/F for this compound: COc1cc2nccc(Oc3ccc(NC(=O)NC4CC4)c(Cl)c3)c2cc1C(N)=O [lenvatinib] 86.8

* * *

assay: Plasma pharmacokinetics; conditions: human, in vivo, 5 mg, Cmax
Result Type: Cmax (ng/mL)
Note: unit ng/mL is implicit; provide only the numeric part.

Please give the measured Cmax for this compound: `COc1cc2nccc(Oc3ccc(NC(=O)NC4CC4)c(Cl)c3)c2cc1C(N)=O` 62.6

* * *

test: Plasma pharmacokinetics; conditions: human, in vivo, 8 mg, AUC0-6
Result Type: AUC(0-t) (ng·h/mL)
Note: unit ng·h/mL is implicit; provide only the numeric part.

Please give the measured AUC(0-t) for this molecule: COc1cc2nccc(Oc3ccc(NC(=O)NC4CC4)c(Cl)c3)c2cc1C(N)=O [lenvatinib] 613

* * *

experiment: Plasma pharmacokinetics; details: human, in vivo, 5 mg, AUC0-6
Result Type: AUC(0-t) (ng·h/mL)
Note: unit ng·h/mL is implicit; provide only the numeric part.

Please give the measured AUC(0-t) for this molecule: COc1cc2nccc(Oc3ccc(NC(=O)NC4CC4)c(Cl)c3)c2cc1C(N)=O [lenvatinib] 245

* * *

assay: Plasma pharmacokinetics; conditions: human, in vivo, 8 mg
Result Type: Tmax (h)
Note: unit h is implicit; provide only the numeric part.

Please give the measured Tmax for this compound: `COc1cc2nccc(Oc3ccc(NC(=O)NC4CC4)c(Cl)c3)c2cc1C(N)=O` 2.5

* * *

assay: Plasma pharmacokinetics; settings: human, in vivo, 16 mg, Cmax
Result Type: Cmax (ng/mL)
Note: unit ng/mL is implicit; provide only the numeric part.

Please give the measured Cmax for this compound: `COc1cc2nccc(Oc3ccc(NC(=O)NC4CC4)c(Cl)c3)c2cc1C(N)=O` 341

* * *

test: Plasma pharmacokinetics; settings: human, in vivo, 16 mg
Result Type: Vd/F (L)
Note: unit L is implicit; provide only the numeric part.

Please give the measured Vd/F for this compound: COc1cc2nccc(Oc3ccc(NC(=O)NC4CC4)c(Cl)c3)c2cc1C(N)=O [lenvatinib] 68.5

* * *

experiment: Plasma pharmacokinetics; conditions: human, in vivo, 10 mg
Result Type: Tmax (h)
Note: unit h is implicit; provide only the numeric part.

Please give the measured Tmax for this compound: `COc1cc2nccc(Oc3ccc(NC(=O)NC4CC4)c(Cl)c3)c2cc1C(N)=O` 2

* * *

assay: Plasma pharmacokinetics; settings: human, in vivo, 3.2 mg, AUC0-6
Result Type: AUC(0-t) (ng·h/mL)
Note: unit ng·h/mL is implicit; provide only the numeric part.

Please give the measured AUC(0-t) for this compound: COc1cc2nccc(Oc3ccc(NC(=O)NC4CC4)c(Cl)c3)c2cc1C(N)=O [lenvatinib] 180

* * *

assay: Plasma pharmacokinetics; conditions: human, in vivo, 10 mg
Result Type: Vd/F (L)
Note: unit L is implicit; provide only the numeric part.

Please give the measured Vd/F for this compound: `COc1cc2nccc(Oc3ccc(NC(=O)NC4CC4)c(Cl)c3)c2cc1C(N)=O` 75.4
